- method: Peak absorption and fluorescence emission wavelengths in solvents
- Assay type: physicochemical
- measurement.setup: Chloroform; 10 μM
For each entry below, report its λabs(max)/nm value.
Use nm as the unit, but write only the number.

[Q] Which λabs(max)/nm reading was recorded for the compound COCCN1C(=O)/C(=C/c2ccc(C#Cc3ccc(N4CCNCC4)cc3)cc2)N=C1C ?
[A] 403

[Q] If you can, please state the reported λabs(max)/nm value of COC(=O)/C=C/c1ccc(C#Cc2ccc(N3CCC3)cc2)cc1 .
[A] 374

[Q] For the compound O=C1/C(=C/c2ccc(C#Cc3ccc(N4CCNCC4)cc3)cc2)N=C(c2ccccc2)N1CCN1CCOCC1 , what λabs(max)/nm is on record?
[A] 424

[Q] Quick one: λabs(max)/nm of NCCN1C(=O)/C(=C/c2ccc(C#Cc3ccc(N4CCC4)cc3)cc2)N=C1c1ccccc1 ?
[A] 432

* * *

- method: Peak absorption and fluorescence emission wavelengths in solvents
- Format: physicochemical
- measurement.setup: DCM; 10 μM
readout.type: λabs(max)/nm (nm)
Your answer is read as nm, so omit the unit and give the number.

[Q] I am curious: what λabs(max)/nm value has been reported for COC(=O)/C=C/c1ccc(C#Cc2ccc(N3CCN(CCC[P+](c4ccccc4)(c4ccccc4)c4ccccc4)CC3)cc2)cc1.[Br-] ?
[A] 361

[Q] λabs(max)/nm lookup needed for COC(=O)/C=C/c1ccc(C#Cc2ccc(N(C)CCN)cc2)cc1 , thanks.
[A] 371

[Q] Given the entry CC(C)(C)OC(=O)/C=C/c1ccc(C#Cc2ccc(N3CCNCC3)cc2)cc1 , report its measured λabs(max)/nm.
[A] 368

[Q] Which λabs(max)/nm is reported for this compound? COC(=O)/C=C/c1ccc(C#Cc2ccc(N(C)CCNS(=O)(=O)c3ccc(C)cc3)cc2)cc1
[A] 377

[Q] Endpoint output: λabs(max)/nm of CC(C)(C)OC(=O)/C=C/c1ccc(C#Cc2ccc(N3CCNCC3)cc2)s1 . Value?
[A] 371

[Q] # λabs(max)/nm lookup, item COC(=O)/C=C/c1ccc(C#Cc2ccc(N3CCN(C(C)=O)CC3)cc2)cc1
[A] 361

[Q] Look up λabs(max)/nm: COC(=O)/C=C/c1ccc(C#Cc2ccc(N3CCNCC3)cc2)cc1
[A] 362
